I'd be grateful if you could share measured reverse-splicing fitness for these entries.
B1: Azoarcus group I ribozyme (parent)
chain: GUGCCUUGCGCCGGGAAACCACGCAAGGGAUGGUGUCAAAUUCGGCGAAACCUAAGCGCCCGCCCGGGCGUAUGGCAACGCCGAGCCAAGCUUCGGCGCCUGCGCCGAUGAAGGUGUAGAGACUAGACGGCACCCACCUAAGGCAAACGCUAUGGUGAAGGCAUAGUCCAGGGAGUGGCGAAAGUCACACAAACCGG

Variants of: B1
PROCEDURE_SUMMARY: reverse-splicing fitness (ratio to wild type); higher = more active; in vitro selection; Mg2+ level not given
Answers are plain numbers.

Quick one: give me reverse-splicing fitness for each item below, same order please.
1. C82G A120C C150G U176G
2. A111G A120U A145G C150G
3. C82A A111U C150U C169A U176A
4. A120U A145G C150A C169A
5. C82G A111C A145C C150U C169G U176G
6. C82G A120G C150U C169A
7. A111G A120G A145C C150G U176C

1: 0.00413; 2: 0.0771; 3: 0.0158; 4: 0.00622; 5: 0.00873; 6: 0.0193; 7: 0.0228

List reverse-splicing fitness for every entry below, keeping the order given.
1. C82U A111G A145G C150A C169A U176A
2. A111G A120C C150U C169A U176G
3. C82A A145G C150A C169U U176A
4. A120C A145G U176G
5. C82A A120U A145U C150G U176C
6. C82U A111U A120U C150G C169G U176C

1: 0.0187; 2: 0.00384; 3: 0.0138; 4: 0.212; 5: 0.00823; 6: 0.00263

Each variant below has a recorded value; state its reverse-splicing fitness.
1. C82G A111G A120U A145U C150U C169G U176C
2. C82U A120U A145U C150G C169A U176C
3. A111G A120G A145C C150A C169G U176C
4. C82G A111U A120U A145U U176A
5. A111U A120G

1: 0.00343; 2: 0.00203; 3: 0.0168; 4: 0.0108; 5: 0.174
